Source of measurements: paper PMC4411306

- Tested System: the molecule itself
- Protocol Details: cross-linking; spontaneous disulfide bond formation: membrane fractions without chemical crosslinker, SDS–PAGE without 2-ME, anti-HA blot
Property Measured: stoichiometry N

Protein	Property Measured	Observed Measurement
HA-Sho1* A123C (natural protein, Saccharomyces cerevisiae, UniProt P40073 1-367, looked up, Sho1, S. cerevisiae, Cys-less (C78S C85S) with a single Cys; source: S. cerevisiae KT079 (sho1Δ), GAL1 promoter, in membrane fraction; not shown: HA, N-terminal, kept) MSISSKIRPTPRKPSRMATDHSFKMKKFYADPFAISSISLAIVSWVIAIGGSISSASTNESFPRFTWWGIVYQFLIISSLMLFYSFDLVDHYRIFITTSIAVAFVYNTNSATNLVYADGPKKCAASAGVILLSIINLIWILYYGGDNASPTNRWIDSFSIKGIRPSPLENSLHRARRRGNRNTTPYQNNVYNDAIRDSGYATQFDGYPQQQPSHTNYVSSTALAGFENTQPNTSEAVNLHLNTLQQRINSASNAKETNDNSNNQTNTNIGNTFDTDFSNGNTETTMGDTLGLYSDIGDDNFIYKAKALYPYDADDDDAYEISFEQNEILQVSDIEGRWWKARRANGETGIIPSNYVQLIDGPEEMHR	stoichiometry N	2
HA-Sho1* N109C (natural protein, Saccharomyces cerevisiae, UniProt P40073 1-367, looked up, Sho1, S. cerevisiae, Cys-less (C78S C85S) with a single Cys; source: S. cerevisiae KT079 (sho1Δ), GAL1 promoter, in membrane fraction; not shown: HA, N-terminal, kept) MSISSKIRPTPRKPSRMATDHSFKMKKFYADPFAISSISLAIVSWVIAIGGSISSASTNESFPRFTWWGIVYQFLIISSLMLFYSFDLVDHYRIFITTSIAVAFVYNTCSATNLVYADGPKKAAASAGVILLSIINLIWILYYGGDNASPTNRWIDSFSIKGIRPSPLENSLHRARRRGNRNTTPYQNNVYNDAIRDSGYATQFDGYPQQQPSHTNYVSSTALAGFENTQPNTSEAVNLHLNTLQQRINSASNAKETNDNSNNQTNTNIGNTFDTDFSNGNTETTMGDTLGLYSDIGDDNFIYKAKALYPYDADDDDAYEISFEQNEILQVSDIEGRWWKARRANGETGIIPSNYVQLIDGPEEMHR	stoichiometry N	2
HA-Sho1* I53C (natural protein, Saccharomyces cerevisiae, UniProt P40073 1-367, looked up, Sho1, S. cerevisiae, Cys-less (C78S C85S) with a single Cys; source: S. cerevisiae KT079 (sho1Δ), GAL1 promoter, in membrane fraction; not shown: HA, N-terminal, kept) MSISSKIRPTPRKPSRMATDHSFKMKKFYADPFAISSISLAIVSWVIAIGGSCSSASTNESFPRFTWWGIVYQFLIISSLMLFYSFDLVDHYRIFITTSIAVAFVYNTNSATNLVYADGPKKAAASAGVILLSIINLIWILYYGGDNASPTNRWIDSFSIKGIRPSPLENSLHRARRRGNRNTTPYQNNVYNDAIRDSGYATQFDGYPQQQPSHTNYVSSTALAGFENTQPNTSEAVNLHLNTLQQRINSASNAKETNDNSNNQTNTNIGNTFDTDFSNGNTETTMGDTLGLYSDIGDDNFIYKAKALYPYDADDDDAYEISFEQNEILQVSDIEGRWWKARRANGETGIIPSNYVQLIDGPEEMHR	stoichiometry N	2
